Biological target: Human Factor D (Homo sapiens (Human), UniProt P00746)
Sequence (P00746 26-253): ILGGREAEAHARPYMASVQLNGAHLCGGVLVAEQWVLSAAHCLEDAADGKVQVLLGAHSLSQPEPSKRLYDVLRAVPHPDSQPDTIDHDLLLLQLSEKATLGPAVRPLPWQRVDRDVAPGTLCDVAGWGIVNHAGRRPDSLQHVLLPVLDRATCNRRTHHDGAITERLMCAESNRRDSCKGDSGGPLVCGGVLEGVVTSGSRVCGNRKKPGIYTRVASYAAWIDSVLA
Experiment: Human Factor D Assay
Assay type: biochemical
Details: Factor D inhibition, assay of Example 10; read-out: IC5 (Stars)
pIC50: −log10 of the molar value.
experimental endpoint: pIC50

# annotated cases, reported pIC50 shown
CC(=O)c1cn(CC(=O)N2[C@H](C(=O)Nc3nc(Br)ccc3C)C[C@@]3(C)C[C@@H]23)c2c(C)nc(-c3cnc(C)nc3)cc12 [Compound 472] :: > 6.00
CC(=O)c1nn(CC(=O)N2[C@H](C(=O)Nc3cc(-c4ccccc4)cc(Br)n3)C[C@@]3(C)C[C@@H]23)c2ccc(-c3cnc(C)nc3)cc12 [Compound 547] :: > 6.00

Shifting focus to the compound that follows.
Query: Lab request: please report pIC50 under test system Human Factor D (Homo sapiens (Human), UniProt P00746) for CC(=O)c1nn(CC(=O)N2[C@H](C(=O)Nc3nc(Br)ccc3C)C[C@@]3(CN4CCC[C@H]4C(=O)O)C[C@@H]23)c2c(C)cc(-c3cnc(C)nc3)cc12 [Compound 299]
Response: > 6.00

----------
Molecular target: Human Factor D (Homo sapiens (Human), UniProt P00746)
Test: Human Factor D Assay
Format: biochemical
Conditions: Table 6; Factor D 80 nM, substrate Z-L-Lys-SBz; read-out: IC50
A collection of molecules and their measured IC50

Known IC50 results, listed for orientation:
CC(=O)c1nn(CC(=O)N2[C@H](C(=O)Nc3nc(Br)ccc3C)C[C@@]3(C)C[C@@H]23)c2c(C(F)(F)F)cc(-c3cnc(C)nc3)cc12 [Compound 133] :: < 1000 nM
CC(=O)c1nn(CC(=O)N2[C@H](C(=O)Nc3nc(Br)ccc3C)C[C@@]3(CN4CC5(CCC5)C4)C[C@@H]23)c2ccc(-c3cnc(C)nc3)cc12 [Compound 67] :: < 1000 nM
CC(=O)c1c2cc(-c3cnc(C)nc3)cc(C(F)(F)F)c2nn1CC(=O)N1[C@H](C(=O)Nc2nc(Br)ccc2C)C[C@@]2(C)C[C@@H]12 [Compound 217] :: > 10000 nM
CC(=O)c1nn(CC(=O)N2[C@H](C(=O)Nc3nc(Br)ccc3C)C[C@@]3(C)C[C@@H]23)c2c(C)cc(-c3cnc(C)nc3)nc12 [Compound 210] :: > 10000 nM
CC(=O)c1nn(CC(=O)N2[C@H](C(=O)Nc3nc(Br)ccc3C)C[C@@]3(CN4CCNCC4)C[C@@H]23)c2c(C)cc(-c3cnc(C)nc3)cc12 [Compound 88] :: < 1000 nM

Query: Entry under review: CC(=O)c1nn(CC(=O)N2[C@H](C(=O)Nc3nc(Br)c(F)cc3C)C[C@@]3(C)C[C@@H]23)c2ncc(-c3cnc(C)nc3)cc12 [Compound 182] . Reported IC50?
Response: < 1000 nM

----------
Biological target: Human Factor D (Homo sapiens (Human), UniProt P00746)
Test: Human Factor D Assay
Assay type: biochemical
Conditions: Table 6; Factor D 80 nM, substrate Z-L-Lys-SBz; read-out: IC50
pIC50: −log10 of the molar value.
experimental endpoint: pIC50

Field: example entries. Status: answers known.
C=CCOC[C@@]12C[C@@H](C(=O)Nc3nc(Br)ccc3C=C)N(C(=O)Cn3nc(C(C)=O)c4cc(-c5cnc(C)nc5)ccc43)[C@@H]1C2 :: > 6.00
Cc1ncc(-c2ccc3c(c2)c(C(C)O)nn3CC(=O)N2[C@H](C(=O)Nc3nc(Br)ccc3C)C[C@@]3(C)C[C@@H]23)cn1 (stereo partly drawn) :: 5.00 to 6.00

Query: Entry under review: `CC(=O)c1nn(CC(=O)N2[C@H](C(=O)Nc3ccc(F)c(Br)n3)C[C@@]3(C)C[C@@H]23)c2c(C)cc(-c3cnc(C)nc3)cc12` . Reported pIC50?
Response: > 6.00
